Target: Human polyclonal immunoglobulin G (IgG) (human)
Experiment: affinity chromatography, peptide on Toyopearl resin, pure human IgG load; yield = IgG eluted/IgG loaded, by Protein G chromatography
*1 amine or outer side, *2 acyl side, *3 side chain or, on linkers, in order; H or OH if unused. Where no end group is shown, it is not given here. [ ]: non-standard residue; d: D form. Trp(For) = Nin-formyl-tryptophan, O=Cn1cc(C[C@H](N[*:1])C(=O)[*:2])c2ccccc21; Tyr(Me) = O-methyl-tyrosine, COc1ccc(C[C@H](N[*:1])C(=O)[*:2])cc1; Phe(4-CONH2) = NC(=O)c1ccc(C[C@H](N)C(=O)O)cc1; Trp(1-Me) = Cn1cc(C[C@H](N)C(=O)O)c2ccccc21; Phe(4-Me) = Cc1ccc(C[C@H](N)C(=O)O)cc1; Cit = NC(=O)NCCC[C@H](N)C(=O)O; Lys(Me) = CNCCCC[C@H](N)C(=O)O
Each entry below lists one item and its recorded IgG yield value.
Respond with the bare value in %.

Worked set:
> print(dat)
                                     binder  units.label  endpoint.value
1  H[Trp(1-Me)]RG[Trp(1-Me)]V-{Toyopearl AF‑Amino‑650M resin} [HWMetRGWMetV]            %              91
2  H[Tyr(Me)][Phe(4-Me)][Lys(Me)][Phe(4-Me)]D-{Toyopearl AF‑Amino‑650M resin} [HYMetFMetKMetFMetD]            %              49
3  H[Trp(For)][Cit]G[Trp(For)]V (not fully specified (C-terminus)) [HWForCitGWForV]            %              75
4  H[Phe(4-CONH2)][Cit][Cit]HL [HFCarbCitCitHL]            %              53

Next, consider the following binder.
Data request: Please look up its IgG yield: HW[Cit]GWV-{Toyopearl AF‑Amino‑650M resin} [HWCitGWV]
Data returned: 91
